Origin of values: patent US20030186281A1

# Test system: tet operator sequence
# assay: β-galactosidase activity of a tetracycline-regulated promoter in transformed E. coli with revTetR, in the presence and absence of anhydrotetracycline (atc)
# Assay type: cell-based, Escherichia coli
# conditionContext: RevTetR isolate cultured in the absence of anhydrotetracycline (ATC)
Give measured β-Galactosidase Activity, Cultured Without ATC for each item. Keep answers brief.
Answers are plain numbers.

Solved cases (4 shown):
molecule	experimentalResult
TetRrev4/6-15: revTetR(BD) A56S I59A L60W V99V (protein, Modified tetracycline repressor, revTetR(BD) A56S I59A L60W V99V) MSRLDKSKVINSALELLNEVGIEGLTTRKLAQKLGVEQPTLYWHVKNKRALLDALSVEAWARHHDYSLPAAGESWQSFLRNNAMSFRRALLRYRDGAKVHLGTRPDEKQYDTVETQLRFMTENGFSLRDGLYAISAVSHFTLGAVLEQQEHTAALTDRPAAPDENLPPLLREALQIMDSDDGEQAFLHGLESLIRGFEVQLTALLQIV	66.054
TetRrev6-54: revTetR(BD) Y93F D95N V99F (protein, Modified tetracycline repressor, revTetR(BD) Y93F D95N V99F) MSRLDKSKVINSALELLNEVGIEGLTTRKLAQKLGVEQPTLYWHVKNKRALLDALAVEILARHHDYSLPAAGESWQSFLRNNAMSFRRALLRFRNGAKFHLGTRPDEKQYDTVETQLRFMTENGFSLRDGLYAISAVSHFTLGAVLEQQEHTAALTDRPAAPDENLPPLLREALQIMDSDDGEQAFLHGLESLIRGFEVQLTALLQIV	6.393
TetRrev96/99-3: revTetR(BD) G96E V99T (protein, Modified tetracycline repressor, revTetR(BD) G96E V99T) MSRLDKSKVINSALELLNEVGIEGLTTRKLAQKLGVEQPTLYWHVKNKRALLDALAVEILARHHDYSLPAAGESWQSFLRNNAMSFRRALLRYRDEAKTHLGTRPDEKQYDTVETQLRFMTENGFSLRDGLYAISAVSHFTLGAVLEQQEHTAALTDRPAAPDENLPPLLREALQIMDSDDGEQAFLHGLESLIRGFEVQLTALLQIV	103.749
TetRrev29/27: revTetR(BD) L14E V20G (protein, Modified tetracycline repressor, revTetR(BD) L14E V20G) MSRLDKSKVINSAEELLNEGGIEGLTTRKLAQKLGVEQPTLYWHVKNKRALLDALAVEILARHHDYSLPAAGESWQSFLRNNAMSFRRALLRYRDGAKVHLGTRPDEKQYDTVETQLRFMTENGFSLRDGLYAISAVSHFTLGAVLEQQEHTAALTDRPAAPDENLPPLLREALQIMDSDDGEQAFLHGLESLIRGFEVQLTALLQIV	82.7579

Prompt: // β-Galactosidase Activity, Cultured Without ATC lookup, key: TetRrev19/48: revTetR(BD) N18K E19D V20L I22N E23A (protein, Modified tetracycline repressor, revTetR(BD) N18K E19D V20L I22N E23A) MSRLDKSKVINSALELLKDLGNAGLTTRKLAQKLGVEQPTLYWHVKNKRALLDALAVEILARHHDYSLPAAGESWQSFLRNNAMSFRRALLRYRDGAKVHLGTRPDEKQYDTVETQLRFMTENGFSLRDGLYAISAVSHFTLGAVLEQQEHTAALTDRPAAPDENLPPLLREALQIMDSDDGEQAFLHGLESLIRGFEVQLTALLQIV
Response: 79.9581
